From: ChEMBL document CHEMBL1125190

# Tested on: P388
# assay summary: Concentration required to inhibit replication of P388 cell lines by 50% after 72 hr incubation
# Assay type: functional
# stated conditions: Mus musculus, P388, 72 h; read-out: ED50 (the source's name)
property: EC50 (nM)
Express the result in nM but write the number alone.

{"compound": "C=C1C(n2ccc(N)nc2=O)O[C@H](CO)[C@@H]1O (stereo not given in full)", "unit text": "nM", "EC50": 400}

Exercise: Could you share which EC50 value was measured for Nc1ccn([C@@H]2O[C@H](CO)[C@@H](O)[C@@H]2O)c(=O)n1 [CYTARABINE] ?
Solution: 20
